- target.of.assay: T1, APRIL (Acro Biosystems, Cat: APL-H52D1) (UniProt O75888 115-250, limits assumed)
- T1 construct: also called ARPIL
- T1 sequence (looked up): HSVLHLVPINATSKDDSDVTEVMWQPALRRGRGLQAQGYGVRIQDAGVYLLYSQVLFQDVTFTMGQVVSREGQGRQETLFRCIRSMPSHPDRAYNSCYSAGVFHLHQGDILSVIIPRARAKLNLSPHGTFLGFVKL
- experiment: ELISA, APRIL coated at 1 ug/mL, anti-human Fc-HRP, OD450
endpoint.label: Emax
Lab note: record just the number, no unit beside it.

Query: GET /values?readout=Emax&item= B575703 (Fc fusion, TACI-BCMA fusion protein; also called TACI-T2-BCMA-ECD-Fc) SRVDQEERFPQGLWTGVAMRSCPEEQYWDPLLGTCMSCKTICNHQSQRTCAAFCRSLSCRKEQGKFYDHLLRDCISCASICGQHPKQCAYFCENKLRSPVNLPPELMLQMAGQCSQNEYFDSLLHACIPCQLRCSSNTPPLTCQRYCNASVTNSVKGTNADKTHTCPPCPAPEAEGAPSVFLFPPKPKDTLMISRTPEVTCVVVDVSHEDPEVKFNWYVDGVEVHNAKTKPREEQYNSTYRVVSVLTVLHQDWLNGKEYKCKVSNKALPSSIEKTISKAKGQPREPQVYTLPPSRDELTKNQVSLTCLVKGFYPSDIAVEWESNGQPENNYKTTPPVLDSDGSFFLYSKLTVDKSRWQQGNVFSCSVMHEALHNHYTQKSLSLSPGK
Result: 2.78

Query: Note, next up: Telitacicept (RCT-18) (Fc fusion, Positive control TACI-Fc; also called RC18) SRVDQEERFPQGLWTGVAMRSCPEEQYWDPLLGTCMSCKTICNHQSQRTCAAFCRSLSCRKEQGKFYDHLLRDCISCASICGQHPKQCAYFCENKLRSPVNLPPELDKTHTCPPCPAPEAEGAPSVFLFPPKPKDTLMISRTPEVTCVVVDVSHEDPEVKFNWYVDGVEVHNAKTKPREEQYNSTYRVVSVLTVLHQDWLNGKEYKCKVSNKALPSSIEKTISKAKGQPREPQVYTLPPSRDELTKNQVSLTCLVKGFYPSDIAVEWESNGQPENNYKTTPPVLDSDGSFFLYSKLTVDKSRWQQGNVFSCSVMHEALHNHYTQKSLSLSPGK
Result: 2.62

Query: Note, next up: B575702 (Fc fusion, TACI-BCMA fusion protein; also called BCMA-ECD-TACI-d2-Fc) MLQMAGQCSQNEYFDSLLHACIPCQLRCSSNTPPLTCQRYCNASVTNSVKGTNALSCRKEQGKFYDHLLRDCISCASICGQHPKQCAYFCENKLRSPGDKTHTCPPCPAPEAEGAPSVFLFPPKPKDTLMISRTPEVTCVVVDVSHEDPEVKFNWYVDGVEVHNAKTKPREEQYNSTYRVVSVLTVLHQDWLNGKEYKCKVSNKALPSSIEKTISKAKGQPREPQVYTLPPSRDELTKNQVSLTCLVKGFYPSDIAVEWESNGQPENNYKTTPPVLDSDGSFFLYSKLTVDKSRWQQGNVFSCSVMHEALHNHYTQKSLSLSPGK
Result: 2.64

Taken from patent US20260056186A1.
